- Tested on: HT29 colon
- TEST DESCRIPTION: NCI tumour cell line growth inhibition, 48 h
ENDPOINT NAME: TGI

SMILES TEXT: CN(N=O)C(=O)ON1C(=O)CCC1=O
TGT: HT29 colon
OBSERVED VALUE: > 100 µM
--
SMILES TEXT: CCc1nn(CN2CCOCC2)c(=S)n1/N=C/c1ccc(-c2ccc(Cl)cc2)o1
TGT: HT29 colon
OBSERVED VALUE: > 100 µM

Asked: Please look up its TGI: "Cc1c(/C=N/N=C/c2[nH]c(C(=O)OC(C)(C)C)c(C)c2C)[nH]c(C(=O)OC(C)(C)C)c1C"
Given back: > 100 µM
